Field: MIC. Provide a value for each of the molecules that follow.
# System: Klebsiella pneumoniae
# measurement_notes: Antibacterial activity against Carbapenem-resistant Klebsiella pneumoniae FADD1-KP022 clinical isolates assessed as reduction in bacterial growth by broth microdilution method
# Format: functional
Bridge positions count the residues as written; N and C are the ends. Square brackets hold non-standard residues; d marks the D form. Peptide text beside a SMILES is read from it. * marks the point of attachment. X1 = CC[C@H](C)CCCCC(=O)*; Dab = NCC[C@H](N)C(=O)O
Give bare numbers, in µg/mL.

[[record]]
molecule = "CC[C@H](C)CCCCC(=O)N[C@@H](CCN)C(=O)N[C@H](C(=O)N[C@@H](CCN)C(=O)N[C@H]1CCNC(=O)[C@H](CC(C)C)NC(=O)[C@H](CCN)NC(=O)[C@H](CCN)NC(=O)[C@H](CC(C)C)NC(=O)[C@@H](Cc2ccccc2)NC(=O)[C@H](CCN)NC1=O)[C@@H](C)O (X1-[Dab]T[Dab][Dab][Dab][dF]L[Dab][Dab]L; lactam 4-C)"
endpoint_name = "MIC"
unit_abbreviation = "µg/mL"
assay_value = 0.25


Field: MIC. Fill in for each record below.
1. CC[C@H](C)CCCCC(=O)N[C@@H](CCN)C(=O)N[C@H](C(=O)N[C@@H](CCN)C(=O)N[C@H]1CCNC(=O)[C@H](CCCNC(=N)N)NC(=O)[C@H](CCN)NC(=O)[C@H](CCN)NC(=O)[C@H](CC(C)C)NC(=O)[C@@H](Cc2ccccc2)NC(=O)[C@H](CCN)NC1=O)[C@@H](C)O
2. CC[C@H](C)CCCCC(=O)N[C@@H](CCN)C(=O)N[C@H](C(=O)N[C@@H](CCN)C(=O)N[C@H]1CCNC(=O)[C@H](Cc2c[nH]c3ccccc23)NC(=O)[C@H](CCN)NC(=O)[C@H](CCN)NC(=O)[C@H](CC(C)C)NC(=O)[C@@H](Cc2ccccc2)NC(=O)[C@H](CCN)NC1=O)[C@@H](C)O
3. CC[C@H](C)CCCCC(=O)N[C@@H](CCN)C(=O)N[C@H](C(=O)N[C@@H](CCN)C(=O)N[C@H]1CCNC(=O)[C@H](C(C)(C)O)NC(=O)[C@H](CCN)NC(=O)[C@H](CCN)NC(=O)[C@H](CC(C)C)NC(=O)[C@@H](Cc2ccccc2)NC(=O)[C@H](CCN)NC1=O)[C@@H](C)O

Ans:
1: 2; 2: 1; 3: 1

Field: MIC. Fill in for each record below.
1. C/C=C1/NC(=O)[C@H](CCN)NC(=O)[C@H](CCN)NC(=O)[C@H](CC(C)C)NC(=O)[C@@H](Cc2ccccc2)NC(=O)[C@H](CCN)NC(=O)[C@@H](NC(=O)[C@H](CCN)NC(=O)[C@@H](NC(=O)[C@H](CCN)NC(=O)CCCC[C@@H](C)CC)[C@@H](C)O)CCNC1=O
2. CC[C@H](C)CCCCC(=O)N[C@@H](CCN)C(=O)N[C@H](C(=O)N[C@@H](CCN)C(=O)N[C@H]1CCNC(=O)[C@H](CN)NC(=O)[C@H](CCN)NC(=O)[C@H](CCN)NC(=O)[C@H](CC(C)C)NC(=O)[C@@H](Cc2ccccc2)NC(=O)[C@H](CCN)NC1=O)[C@@H](C)O
3. CC[C@H](C)CCCCC(=O)N[C@@H](CCN)C(=O)N[C@H](C(=O)N[C@@H](CCN)C(=O)N[C@H]1CCNC(=O)[C@H](CS)NC(=O)[C@H](CCN)NC(=O)[C@H](CCN)NC(=O)[C@H](CC(C)C)NC(=O)[C@@H](Cc2ccccc2)NC(=O)[C@H](CCN)NC1=O)[C@@H](C)O

Ans:
1. 2
2. 1
3. 4

Field: MIC. Fill in for each record below.
1. CC[C@H](C)CCCCC(=O)N[C@@H](CCN)C(=O)N[C@H](C(=O)N[C@@H](CCN)C(=O)N[C@H]1CCNC(=O)[C@H](C(C)C)NC(=O)[C@H](CCN)NC(=O)[C@H](CCN)NC(=O)[C@H](CC(C)C)NC(=O)[C@@H](Cc2ccccc2)NC(=O)[C@H](CCN)NC1=O)[C@@H](C)O
2. CC[C@H](C)CCCCC(=O)N[C@@H](CCN)C(=O)N[C@H](C(=O)N[C@@H](CCN)C(=O)N[C@H]1CCNC(=O)[C@H](CC)NC(=O)[C@H](CCN)NC(=O)[C@H](CCN)NC(=O)[C@H](CC(C)C)NC(=O)[C@@H](Cc2ccccc2)NC(=O)[C@H](CCN)NC1=O)[C@@H](C)O
3. CC[C@H](C)CCCCC(=O)N[C@@H](CCN)C(=O)N[C@H](C(=O)N[C@@H](CCN)C(=O)N[C@H]1CCNC(=O)[C@H](Cc2c[nH]cn2)NC(=O)[C@H](CCN)NC(=O)[C@H](CCN)NC(=O)[C@H](CC(C)C)NC(=O)[C@@H](Cc2ccccc2)NC(=O)[C@H](CCN)NC1=O)[C@@H](C)O
4. CC[C@H](C)CCCCC(=O)N[C@@H](CCN)C(=O)N[C@H](C(=O)N[C@@H](CCN)C(=O)N[C@H]1CCNC(=O)[C@H](CCN)NC(=O)[C@H](CCN)NC(=O)[C@H](CCN)NC(=O)[C@H](CC(C)C)NC(=O)[C@@H](Cc2ccccc2)NC(=O)[C@H](CCN)NC1=O)[C@@H](C)O
5. CC[C@H](C)CCCCC(=O)N[C@@H](CCN)C(=O)N[C@H](C(=O)N[C@@H](CCN)C(=O)N[C@H]1CCNC(=O)[C@H](C(C)(C)C)NC(=O)[C@H](CCN)NC(=O)[C@H](CCN)NC(=O)[C@H](CC(C)C)NC(=O)[C@@H](Cc2ccccc2)NC(=O)[C@H](CCN)NC1=O)[C@@H](C)O

Ans:
0.25
0.25
8
2
1

# MIC (molecule: `CC[C@H](C)CCCCC(=O)N[C@@H](CCN)C(=O)N[C@H](C(=O)N[C@@H](CCN)C(=O)N[C@H]1CCNC(=O)[C@H](Cc2ccc(O)cc2)NC(=O)[C@H](CCN)NC(=O)[C@H](CCN)NC(=O)[C@H](CC(C)C)NC(=O)[C@@H](Cc2ccccc2)NC(=O)[C@H](CCN)NC1=O)[C@@H](C)O` ) is 0.5
